These entries and their values trace back to ChEMBL document CHEMBL3232966.

Below is a list of entries, each paired with its recorded pIC50 value.
# Experimental protocol: Inhibition of His-6-tagged HIV-1 integrase-recombinant flag-tagged LEDGF/p75 (unknown origin) interaction after 1hr by AlphaScreen assay
pIC50: −log10 of the molar value.
Measurement kind: pIC50

COc1ccc2c(c1)c(C(=O)C1=C(O)C(=O)OC1)cn2Cc1ccc(C(F)(F)F)cc1 | 4.28
Cc1cc(C)cc(Cn2cc(C(=O)C3=C(O)C(=O)OC3)c3cc(Cl)ccc32)c1 | 4.64
COc1cccc2c1c(C(=O)/C=C(\O)C(=O)O)cn2Cc1ccc(F)cc1 | 4.44
O=C1OCC(C(=O)c2cn(Cc3ccc(C(F)(F)F)cc3C(F)(F)F)c3ccc(Cl)cc23)=C1O | 4.67
COc1ccc2c(c1)c(C(=O)C1=C(O)C(=O)OC1)cn2Cc1ccc(C(F)(F)F)cc1C(F)(F)F | 4.40
O=C1OCC(C(=O)c2cn(Cc3ccc(C(F)(F)F)cc3)c3ccc(F)cc23)=C1O | 4.91
O=C(O)/C(O)=C/C(=O)c1cn(Cc2ccc(-c3ccccc3)cc2)c2ccc(F)cc12 | 5.09
O=C(O)/C(O)=C/C(=O)c1cn(Cc2ccc(C(F)(F)F)cc2)c2ccc(Cl)cc12 | 4.48
COc1ccc2c(c1)c(C(=O)C1=C(O)C(=O)OC1)cn2Cc1c(C)cc(C)cc1C | 4.48
CC(C)(C)c1ccc(Cn2cc(C(=O)/C=C(\O)C(=O)O)c3cc(Cl)ccc32)cc1 | 5.00
COc1ccc2c(c1)c(C(=O)/C=C(\O)C(=O)O)cn2Cc1ccc(C(C)(C)C)cc1 | 4.04
O=C1OCC(C(=O)c2cn(Cc3ccc(-c4ccccc4)cc3)c3ccc(F)cc23)=C1O | 4.80
O=C(O)/C(O)=C/C(=O)c1cn(Cc2ccc(C(F)(F)F)cc2)c2ccc(F)cc12 | 4.75
COc1ccc2c(c1)c(C(=O)/C=C(\O)C(=O)O)cn2Cc1cc(C)cc(C)c1 | 4.27
Cc1cc(C)c(Cn2cc(C(=O)C3=C(O)C(=O)OC3)c3cc(F)ccc32)c(C)c1 | 5.25
Cc1cc(C)c(Cn2cc(C(=O)C3=C(O)C(=O)OC3)c3cc(Cl)ccc32)c(C)c1 | 4.63
CC(C)(C)c1ccc(Cn2cc(C(=O)C3=C(O)C(=O)OC3)c3cc(Cl)ccc32)cc1 | 4.28
COc1ccc2c(c1)c(C(=O)C1=C(O)C(=O)OC1)cn2Cc1ccc(C(C)(C)C)cc1 | 4.77
O=C(O)/C(O)=C/C(=O)c1cn(Cc2ccc(C(F)(F)F)cc2C(F)(F)F)c2ccc(Cl)cc12 | 5.42
Cc1cc(C)cc(Cn2cc(C(=O)/C=C(\O)C(=O)O)c3c(O)cccc32)c1 | 5.46
O=C1OCC(C(=O)c2cn(Cc3ccc(-c4ccccc4)cc3)c3ccc(Cl)cc23)=C1O | 4.66
O=C1OCC(C(=O)c2cn(Cc3ccc(C(F)(F)F)cc3)c3ccc(Cl)cc23)=C1O | 4.91
Cc1cc(C)cc(Cn2cc(C(=O)C3=C(O)C(=O)OC3)c3cc(F)ccc32)c1 | 4.69
Cc1cc(C)c(Cn2cc(C(=O)/C=C(\O)C(=O)O)c3cc(F)ccc32)c(C)c1 | 4.82
CC(C)(C)c1ccc(Cn2cc(C(=O)C3=C(O)C(=O)OC3)c3cc(F)ccc32)cc1 | 4.44
COc1ccc2c(c1)c(C(=O)/C=C(\O)C(=O)O)cn2Cc1c(C)cc(C)cc1C | 4.48
